- Measurement target: T1, monkey MSR1 extracellular domain expressed with a N-terminal hexahistidine-myc-myc tag (HMM-mfMSR1) (monkey (Macaca fascicularis))
- T1 chain: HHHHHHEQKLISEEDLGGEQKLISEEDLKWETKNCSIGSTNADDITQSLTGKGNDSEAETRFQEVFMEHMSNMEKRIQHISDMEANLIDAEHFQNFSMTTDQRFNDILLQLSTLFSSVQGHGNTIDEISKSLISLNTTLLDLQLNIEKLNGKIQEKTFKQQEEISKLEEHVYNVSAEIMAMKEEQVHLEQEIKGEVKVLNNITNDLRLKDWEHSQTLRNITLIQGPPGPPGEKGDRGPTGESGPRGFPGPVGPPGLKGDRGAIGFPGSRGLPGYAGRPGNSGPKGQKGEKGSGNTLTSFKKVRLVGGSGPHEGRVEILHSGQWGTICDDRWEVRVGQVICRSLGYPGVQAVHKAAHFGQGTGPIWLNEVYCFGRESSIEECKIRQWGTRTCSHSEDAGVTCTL
- Procedure text: SPR Biacore, 25 C, antibody captured;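 further: rates from 1:1 fit with mass transport limitation of real-time sensorgrams, HEPES-buffered saline with EDTA and Tween-20 at pH 7.4, KD and t½ derived from the kinetic rates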
Decide using t½ alone. Strictly below 4 h: TRUE. Equal to or above 4 h: FALSE.

These recorded examples may help you get a feel for the data.
# Binder, Category label
rows = [
    ("H1H27734P-N297Q (antibody, V domains shown, Human IgG1 Fc with N297Q point mutation) VH: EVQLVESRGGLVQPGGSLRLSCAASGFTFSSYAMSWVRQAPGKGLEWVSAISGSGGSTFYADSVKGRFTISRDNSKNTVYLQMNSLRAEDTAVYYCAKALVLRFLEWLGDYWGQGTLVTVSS VL: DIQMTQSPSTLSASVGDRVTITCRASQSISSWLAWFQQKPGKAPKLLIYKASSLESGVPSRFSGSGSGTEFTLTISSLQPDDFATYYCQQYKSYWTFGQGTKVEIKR", "TRUE"),
    ("H1H21234N-N297Q (antibody, V domains shown, Human IgG1 Fc with N297Q point mutation (EU numbering)) VH: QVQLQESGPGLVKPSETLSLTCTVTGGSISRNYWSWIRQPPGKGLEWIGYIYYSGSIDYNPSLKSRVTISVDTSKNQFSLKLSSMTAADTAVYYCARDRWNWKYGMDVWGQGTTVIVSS VL: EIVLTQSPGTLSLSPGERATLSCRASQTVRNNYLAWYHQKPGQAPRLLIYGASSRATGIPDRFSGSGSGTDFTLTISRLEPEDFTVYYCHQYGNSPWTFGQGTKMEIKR", "FALSE"),
    ("H1H27729P-N297Q (antibody, V domains shown, Human IgG1 Fc with N297Q point mutation) VH: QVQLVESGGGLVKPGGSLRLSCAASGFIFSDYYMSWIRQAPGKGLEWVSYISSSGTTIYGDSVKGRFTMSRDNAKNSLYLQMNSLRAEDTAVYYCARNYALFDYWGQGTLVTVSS VL: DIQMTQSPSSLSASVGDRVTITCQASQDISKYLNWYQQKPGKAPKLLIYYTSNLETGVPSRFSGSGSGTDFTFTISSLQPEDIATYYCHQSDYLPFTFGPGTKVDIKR", "TRUE"),
    ("H1H27754P-N297Q (antibody, V domains shown, Human IgG1 Fc with N297Q point mutation) VH: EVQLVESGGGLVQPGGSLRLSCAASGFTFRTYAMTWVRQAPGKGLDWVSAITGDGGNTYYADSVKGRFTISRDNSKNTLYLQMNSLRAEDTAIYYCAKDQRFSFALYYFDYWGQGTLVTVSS VL: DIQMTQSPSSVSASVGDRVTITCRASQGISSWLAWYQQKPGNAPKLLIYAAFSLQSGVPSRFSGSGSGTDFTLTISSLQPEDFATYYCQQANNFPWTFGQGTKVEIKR", "FALSE"),
]

# ---- query binder ----
Ask | Given the entry H1H27732P-N297Q (antibody, V domains shown, Human IgG1 Fc with N297Q point mutation) VH: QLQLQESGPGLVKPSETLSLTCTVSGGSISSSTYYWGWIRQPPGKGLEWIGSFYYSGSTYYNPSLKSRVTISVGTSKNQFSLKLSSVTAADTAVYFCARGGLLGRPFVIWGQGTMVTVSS VL: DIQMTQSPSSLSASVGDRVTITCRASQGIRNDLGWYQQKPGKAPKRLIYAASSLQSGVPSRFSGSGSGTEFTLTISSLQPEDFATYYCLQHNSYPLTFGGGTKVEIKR , would its reported t½ be below 4 h?
Reply | FALSE
